- tgt: Dihydrofolate reductase (Pneumocystis carinii, UniProt P16184)
- Sequence (P16184 whole entry): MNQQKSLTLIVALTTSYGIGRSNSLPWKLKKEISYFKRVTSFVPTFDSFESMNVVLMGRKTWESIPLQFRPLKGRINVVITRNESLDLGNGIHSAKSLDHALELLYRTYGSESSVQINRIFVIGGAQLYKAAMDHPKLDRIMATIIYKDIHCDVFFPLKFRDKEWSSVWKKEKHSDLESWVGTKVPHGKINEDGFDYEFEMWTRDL
observable: IC50 (nM)

COc1ccc(/C=C/c2cnc3nc(N)nc(N)c3c2)cc1
5300
CCN(Cc1cnc2nc(N)nc(N)c2c1)c1cc(OC)c(OC)c(OC)c1
190

(P) COc1cc(N(C=O)Cc2cnc3nc(N)nc(N)c3c2)cc(OC)c1OC
(Q) COc1ccc(CCc2cnc3nc(N)nc(N)c3c2)cc1
Task item: Between P and Q , which one shows the larger IC50 value? Answer with the label corresponding to your selection.
Reply: P

###

- tgt: Bifunctional dihydrofolate reductase-thymidylate synthase (Toxoplasma gondii, UniProt Q07422)
- Sequence (Q07422 whole entry): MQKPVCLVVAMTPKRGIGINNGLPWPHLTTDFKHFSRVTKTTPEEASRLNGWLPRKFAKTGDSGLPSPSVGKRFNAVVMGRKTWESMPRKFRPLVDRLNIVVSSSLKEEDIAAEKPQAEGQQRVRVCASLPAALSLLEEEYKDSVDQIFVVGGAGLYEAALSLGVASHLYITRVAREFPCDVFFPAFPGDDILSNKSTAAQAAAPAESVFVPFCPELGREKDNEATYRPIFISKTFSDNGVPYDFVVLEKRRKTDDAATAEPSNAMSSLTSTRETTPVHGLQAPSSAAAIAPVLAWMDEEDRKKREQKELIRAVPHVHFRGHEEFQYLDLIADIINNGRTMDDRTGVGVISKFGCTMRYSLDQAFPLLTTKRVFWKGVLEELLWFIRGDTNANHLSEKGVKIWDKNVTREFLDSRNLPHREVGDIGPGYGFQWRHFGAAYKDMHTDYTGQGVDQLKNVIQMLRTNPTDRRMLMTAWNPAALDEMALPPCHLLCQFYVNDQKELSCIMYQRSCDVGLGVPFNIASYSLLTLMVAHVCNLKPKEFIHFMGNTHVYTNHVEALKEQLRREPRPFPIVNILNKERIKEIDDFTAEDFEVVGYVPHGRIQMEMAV
observable: pIC50
Expect pIC50 as a plain number equal to -log10 of the molar concentration.

COc1cc(CCC2CNc3nc(N)nc(N)c3C2)cc(OC)c1OC (stereo unspecified)
6.33
COc1cc(/C=C/c2cnc3nc(N)nc(N)c3c2)cc(OC)c1OC
5.85
COc1ccc(/C=C/c2cnc3nc(N)nc(N)c3c2)cc1
5.82
COc1ccc(/C=C/c2cnc3nc(N)nc(N)c3c2)cc1OC
5.85
COc1cc(NCc2cnc3nc(N)nc(N)c3c2)cc(OC)c1OC
6.52
COc1ccc(CCc2cnc3nc(N)nc(N)c3c2)cc1OC
6.70
CCN(Cc1cnc2nc(N)nc(N)c2c1)c1cc(OC)c(OC)c(OC)c1
7.31
COc1ccc(CCC2CNc3nc(N)nc(N)c3C2)cc1OC (stereo unspecified)
5.96

Task item: Recorded pIC50 of COc1cc(N(C=O)Cc2cnc3nc(N)nc(N)c3c2)cc(OC)c1OC , please.
Reply: 5.96

Task item: Next: COc1cc(CCc2cnc3nc(N)nc(N)c3c2)cc(OC)c1OC
Reply: 6.70

Task item: Subsequent entry: COc1ccc(CCc2cnc3nc(N)nc(N)c3c2)cc1
Reply: 6.60

###

UniProt Q920D2: reported pIC50 for various compounds.
Sequence (Q920D2 whole entry): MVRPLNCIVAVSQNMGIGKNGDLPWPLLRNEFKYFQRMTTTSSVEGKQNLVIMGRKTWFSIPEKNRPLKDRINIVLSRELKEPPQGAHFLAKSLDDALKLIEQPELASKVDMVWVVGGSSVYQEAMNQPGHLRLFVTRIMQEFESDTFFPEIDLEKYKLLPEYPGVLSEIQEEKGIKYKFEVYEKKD
pIC50: −log10 of the molar value.
observable: pIC50

COc1cc(CCC2CNc3nc(N)nc(N)c3C2)cc(OC)c1OC (stereo unspecified)
5.21
COc1cc(N(C)Cc2cnc3nc(N)nc(N)c3c2)cc(OC)c1OC
6.55
CCN(Cc1cnc2nc(N)nc(N)c2c1)c1cc(OC)c(OC)c(OC)c1
6.92
COc1ccc(CCc2cnc3nc(N)nc(N)c3c2)cc1
6.59

(I) COc1ccc(/C=C/c2cnc3nc(N)nc(N)c3c2)cc1OC
(II) COc1ccc(/C=C/c2cnc3nc(N)nc(N)c3c2)cc1
Task item: Parameter check: reported pIC50 is higher for which label, I or II ? Please respond with the label that marks your chosen entry.
Reply: I

// data source = ChEMBL document CHEMBL1129937
